# Read-out: Vascular cell adhesion molecule 1 (VCAM1), VCAM1 (gene 7412)
# Protocol Details: BSK_4H_VCAM1: BioMAP Diversity Plus: 4H Assay for Vascular cell adhesion molecule 1 (VCAM1) Biomarker Activity (AID 2283033)
# Measurement Context: primary human endothelial cells (HUVEC); actives raise or lower the signal
The source made the active and inactive calls. The calls were made as follows: active = hit-call score of the fitted dose curve at least 0.9, where 1 is the maximum; inactive = score below 0.9.
Use one of these outcomes when replying: true for active, false for inactive

CCC(=O)OCC=Cc1ccccc1; false
O=C(c1ccc(OCCN2CCCCC2)cc1)c1c(-c2ccc(O)cc2)sc2cc(O)ccc12; true
O=C1OC2(c3ccc(O)cc3Oc3cc(O)ccc32)c2ccccc21; false
O=C(O)C(F)(F)C(F)(F)C(F)(F)C(F)(F)C(F)(F)C(F)(F)C(F)(F)C(F)F; false

Now take the following compound into account.
Req: What call does the record list for `C[C@]12CC[C@@H]3c4ccc(O)cc4CC[C@H]3[C@@H]1CC[C@@H]2O` ?
Resp: false

====

# Target Or System: Cellular tumor antigen p53 (Homo sapiens) (UniProt P04637)
# Sequence (P04637 whole entry, looked up): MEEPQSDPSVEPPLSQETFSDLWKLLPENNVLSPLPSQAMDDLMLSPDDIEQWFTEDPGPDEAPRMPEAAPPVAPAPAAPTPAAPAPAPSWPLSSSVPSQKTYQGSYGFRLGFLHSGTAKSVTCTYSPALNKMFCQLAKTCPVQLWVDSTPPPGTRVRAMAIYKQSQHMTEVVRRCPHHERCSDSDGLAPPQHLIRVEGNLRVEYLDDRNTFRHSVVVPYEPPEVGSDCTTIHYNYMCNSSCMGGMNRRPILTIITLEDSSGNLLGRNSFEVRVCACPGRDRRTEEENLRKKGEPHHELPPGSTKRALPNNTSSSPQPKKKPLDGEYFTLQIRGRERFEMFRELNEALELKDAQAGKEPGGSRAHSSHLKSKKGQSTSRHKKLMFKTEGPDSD
# Protocol Details: TOX21_p53_BLA_p4_ratio: Tox21 HCT-116 p53 Agonism Beta-lactamase Assay, Ratio, Phase 4 (AID 2283601)
Inconclusive results are not listed. Calls of active or inactive are those of the source. How the source made its calls: active means hit-call score of the fitted dose curve at least 0.9, where 1 is the maximum; inconclusive means response in the unintended direction; inactive means score below 0.9.
Would you mind answering with one of these outcomes? 1 for active, 0 for inactive

Solved cases below.
Cc1cc(N)n(-c2ccccc2)n1; 0
COc1ccccc1NC(=O)CC(C)=O; 0
CCOC(=O)CCCCCCCCC(=O)OCC; 0

Req: What is the recorded call for this compound in the test? `CC(=O)CCc1ccc(O)cc1`
Resp: 0

Req: Kindly provide the recorded test outcome for the following compound: `CCOC(=O)COC(=O)c1ccccc1C(=O)OCC`
Resp: 0

Req: In this assay, the call recorded for `CCCCCCCCOC(C)=O` was what?
Resp: 0

Req: What outcome does the record of this test show for `OCCCO` ?
Resp: 0

Req: Name the outcome recorded for `CCCO[Si](OCCC)(OCCC)OCCC` in the assay.
Resp: 0

====

# Target Or System: Nuclear receptor subfamily 1 group I member 2 (Homo sapiens) (UniProt O75469)
# Sequence (O75469 whole entry, looked up): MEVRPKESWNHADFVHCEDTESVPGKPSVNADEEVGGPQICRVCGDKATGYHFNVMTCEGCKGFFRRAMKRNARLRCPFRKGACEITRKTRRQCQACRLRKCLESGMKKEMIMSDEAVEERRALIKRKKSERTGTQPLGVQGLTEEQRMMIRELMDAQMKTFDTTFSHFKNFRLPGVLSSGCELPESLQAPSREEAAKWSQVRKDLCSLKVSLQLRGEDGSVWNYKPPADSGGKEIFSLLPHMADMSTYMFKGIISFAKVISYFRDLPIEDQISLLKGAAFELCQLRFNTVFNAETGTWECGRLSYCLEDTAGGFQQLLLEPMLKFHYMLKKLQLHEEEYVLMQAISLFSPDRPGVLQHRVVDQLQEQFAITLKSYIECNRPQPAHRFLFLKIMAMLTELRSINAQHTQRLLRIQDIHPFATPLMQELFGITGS
# Protocol Details: ATG_PXR_TRANS: Attagene TRANS-FACTORIAL HepG2 Assay for human Pregnane X Receptor (PXR) (AID 2283008)
# Protocol: ATG_TRANS is a cell-based, multiplexed-readout assay that uses HepG2, a human liver cell line, with measurements taken at 24 hours after chemical dosing in a 24-well plate.ATG_PXR_TRANS is one of 30 assay component(s) measured or calculated from the ATG_TRANS assay. […] This assay endpoint, ATG_PXR_TRANS, was analyzed in the positive analysis fitting direction relative to DMSO as the negative control and baseline of activity. […]
Results filed as inconclusive are left out. Activity calls are given as the source filed them. Rule for the calls: active = hit-call score of the fitted dose curve at least 0.9, where 1 is the maximum; inconclusive = response in the unintended direction; inactive = score below 0.9.
Respond only with the outcome that fits, drawn from label 1 (active), label 0 (inactive)

// known answers, use as guide
CC(=O)CC(=O)N(C)C; label 0
CCC(C)C1CCCCC1=O (stereo not drawn); label 0
Cc1cc(O)c2c(c1)C(=O)c1cc(O)cc(O)c1C2=O; label 1

Req: Hi team, can someone confirm the assay call for `CCCc1ccc(O)cc1` ?
Resp: label 0

Req: State the result this test recorded for `N=C1N=C(N)c2ccccc21` .
Resp: label 1

Req: // return assay outcome for `C=CC(=O)OCCCCCC`
Resp: label 0

Req: Would you mind telling me which call this test gave CC(C)Cc1ccc(C(C)C(=O)O)cc1 (stereo not drawn) ?
Resp: label 0

Req: Each compound tested received a call. Report the one for `CC(=O)CCC=C(C)CCC=C(C)C` .
Resp: label 1

The values you see were collected from PubChem BioAssay (EPA / NIEHS).
